- Tested on: Rattus norvegicus
- TEST_DETAILS: Antisecretory activity in Sprague-Dawley rat assessed as decrease in acidity at 50 mg/kg, po administered 30 mins prior to pylorus ligation measured after 4 hrs relative to control
- Type: functional
- Set-up: scale not given: the % may be the effect or the level left
Quick list: Activity per entry.
EXPERIMENTAL_READOUT: Activity (%)

MOLECULE | QUANTITY_UNIT | ASSAY_RESULT
C#CCN1CCC2=C(C1)c1c(O)cc(C(C)CCCc3ccc(F)cc3)cc1OC2(C)C (configuration not stated) | % | 12.8
CCCCCc1cc(O)c2c(c1)OC(C)(C)[C@@H]1CCC(C)=C[C@@H]21 | % | 7.5
C#CCN1CCC2=C(C1)c1c(O)cc(C(C)C(C)CCCCC)cc1OC2(C)C (configuration not stated) | % | 23.5
CC1CCC2=C(C1)c1c(O)cc(C(C)CCCc3ccc(F)cc3)cc1OC2(C)C (configuration not stated) | % | 7.8
C#CCN1CCC2=C(C1)c1c(O)cc(CCCCC)cc1OC2(C)C | % | 14.8
C#CCN1CCC2=C(C1)c1c(OC(=O)CCCN3CCCCC3)cc(C(C)CCCc3ccc(F)cc3)cc1OC2(C)C.Cl (configuration not stated) | % | 42.4
CC1CCC2=C(C1)c1c(O)cc(C(C)C(C)CCc3ccc(F)cc3)cc1OC2(C)C (configuration not stated) | % | 13.4

---

- Tested on: Rattus norvegicus
- TEST_DETAILS: Antianxiety activity in Long-Evans rat assessed as reduction in motor activity at 10 mg/kg, po after 2 hrs relative to vehicle-treated control
- Type: functional
- Set-up: scale not given: the % may be the effect or the level left
Quick list: Activity per entry.
EXPERIMENTAL_READOUT: Activity (%)

COMPOUND | EXPERIMENTAL_READOUT | ASSAY_RESULT
CC1CCC2=C(C1)c1c(O)cc(C(C)CCc3ccc(F)cc3)cc1OC2(C)C (stereo not given) | Activity | 72
CN(C)CCCN1c2ccccc2Sc2ccc(Cl)cc21 | Activity | 76
CC1CCC2=C(C1)c1c(O)cc(C(C)C(C)CCCc3ccc(F)cc3)cc1OC2(C)C (stereo not given) | Activity | 36
C#CCN1CCC2=C(C1)c1c(O)cc(C(C)C(C)CCCCC)cc1OC2(C)C (stereo not given) | Activity | 75
CNC1=Nc2ccc(Cl)cc2C(c2ccccc2)=[N+]([O-])C1.Cl [CHLORDIAZEPOXIDE HYDROCHLORIDE] | Activity | 54

---

- System: Rattus norvegicus
- TEST_DETAILS: Antianxiety activity in Long-Evans rat assessed as reduction in motor activity at 5 mg/kg, po after 2 hrs relative to vehicle-treated control
- Assay type: functional
- Set-up: scale not given: the % may be the effect or the level left
Quick list: Activity per entry.

COMPOUND | TARGET_UNDER_TEST | Activity
CC1CCC2=C(C1)c1c(OC(=O)CCCN3CCCCC3)cc(C(C)CCCc3ccc(F)cc3)cc1OC2(C)C.Cl (centres undefined) | Rattus norvegicus | 72%
C#CCN1CCC2=C(C1)c1c(O)cc(C(C)C(C)CCCc3ccc(F)cc3)cc1OC2(C)C (centres undefined) | Rattus norvegicus | 46%
CC1CCC2=C(C1)c1c(O)cc(C(C)CCCN(C)C)cc1OC2(C)C (centres undefined) | Rattus norvegicus | 12%
C#CCN1CCC2=C(C1)c1c(OC(C)=O)cc(C(C)CCCc3ccc(F)cc3)cc1OC2(C)C (centres undefined) | Rattus norvegicus | 57%
CCCCCc1cc(O)c2c(c1)OC(C)(C)[C@@H]1CCC(C)=C[C@@H]21 | Rattus norvegicus | 14%
C#CCN1CCC2=C(C1)c1c(O)cc(C(C)CCCCc3ccc(F)cc3)cc1OC2(C)C (centres undefined) | Rattus norvegicus | 33%
CC1CCC2=C(C1)c1c(O)cc(C(C)C(C)CCc3ccc(F)cc3)cc1OC2(C)C (centres undefined) | Rattus norvegicus | 66%
CNC1=Nc2ccc(Cl)cc2C(c2ccccc2)=[N+]([O-])C1.Cl [CHLORDIAZEPOXIDE HYDROCHLORIDE] | Rattus norvegicus | 26%
CC1CCC2=C(C1)c1c(O)cc(C(C)C(C)Cc3ccc(F)cc3)cc1OC2(C)C (centres undefined) | Rattus norvegicus | 66%
